# IC50 listing for each entry below
molecular target: LRRK2(G2019S mutation, GST-LRRK2(amino acids 970-2527)) (Homo sapiens (Human), UniProt Q5S007, G2019S); assay: LRRK2 Km ATP LanthaScreen Assay; assay type: biochemical; details: Examples P1-P18
Sequence (Q5S007 970-2527 G2019S): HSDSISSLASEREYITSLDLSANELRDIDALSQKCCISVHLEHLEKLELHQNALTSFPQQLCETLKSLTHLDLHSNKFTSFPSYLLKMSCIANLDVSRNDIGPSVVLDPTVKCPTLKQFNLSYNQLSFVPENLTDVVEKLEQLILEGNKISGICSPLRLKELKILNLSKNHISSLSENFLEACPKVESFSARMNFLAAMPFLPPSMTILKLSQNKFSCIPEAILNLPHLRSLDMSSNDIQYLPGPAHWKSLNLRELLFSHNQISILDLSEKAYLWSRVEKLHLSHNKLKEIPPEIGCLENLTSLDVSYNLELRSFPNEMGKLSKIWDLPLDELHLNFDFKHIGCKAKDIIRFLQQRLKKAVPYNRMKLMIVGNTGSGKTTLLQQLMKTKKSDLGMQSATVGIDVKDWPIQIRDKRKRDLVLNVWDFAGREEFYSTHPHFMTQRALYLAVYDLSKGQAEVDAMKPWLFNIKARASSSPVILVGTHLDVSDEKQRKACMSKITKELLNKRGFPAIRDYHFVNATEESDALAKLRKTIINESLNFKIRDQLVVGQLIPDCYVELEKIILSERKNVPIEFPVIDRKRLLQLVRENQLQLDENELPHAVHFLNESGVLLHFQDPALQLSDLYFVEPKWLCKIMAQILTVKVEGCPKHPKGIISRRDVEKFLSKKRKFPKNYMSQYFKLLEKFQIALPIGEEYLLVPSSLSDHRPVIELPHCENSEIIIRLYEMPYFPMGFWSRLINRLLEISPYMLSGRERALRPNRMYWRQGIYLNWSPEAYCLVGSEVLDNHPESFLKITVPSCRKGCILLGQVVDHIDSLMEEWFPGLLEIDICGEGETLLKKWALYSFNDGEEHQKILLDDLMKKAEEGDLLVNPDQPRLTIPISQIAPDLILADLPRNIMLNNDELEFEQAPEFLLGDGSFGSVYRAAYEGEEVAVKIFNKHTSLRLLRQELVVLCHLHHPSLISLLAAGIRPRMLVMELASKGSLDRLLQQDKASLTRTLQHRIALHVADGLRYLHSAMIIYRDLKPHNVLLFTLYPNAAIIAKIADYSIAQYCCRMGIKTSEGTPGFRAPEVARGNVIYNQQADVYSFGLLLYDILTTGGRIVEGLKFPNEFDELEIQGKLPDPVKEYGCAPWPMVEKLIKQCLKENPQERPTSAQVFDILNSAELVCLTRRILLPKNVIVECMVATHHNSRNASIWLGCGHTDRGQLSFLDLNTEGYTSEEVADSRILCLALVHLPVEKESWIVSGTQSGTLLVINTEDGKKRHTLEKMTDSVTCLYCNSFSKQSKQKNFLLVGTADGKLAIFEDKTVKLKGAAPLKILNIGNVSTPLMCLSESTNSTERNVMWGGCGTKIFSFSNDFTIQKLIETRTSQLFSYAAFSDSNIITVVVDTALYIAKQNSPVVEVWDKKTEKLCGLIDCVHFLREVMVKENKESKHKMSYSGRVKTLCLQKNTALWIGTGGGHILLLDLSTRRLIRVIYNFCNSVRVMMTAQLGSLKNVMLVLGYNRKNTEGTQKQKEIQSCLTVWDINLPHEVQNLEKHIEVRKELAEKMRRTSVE
Return type: number; implicit unit nM.

Observe how each entry below is paired with its result.
COCCn1cc(-c2ccc3[nH]nc(-c4cc(N5CCOCC5)ncn4)c3c2)cn1 | 1.5
c1nc(-c2n[nH]c3ccc(-c4ccc5nncn5c4)cc23)cc(N2CCOCC2)n1 | 56.1
Cc1noc(C)c1-c1ccc2[nH]nc(-c3cc(N4CCOCC4)ncn3)c2c1 | 48.7
c1ncc(-c2ccc3[nH]nc(-c4cc(N5CCOCC5)ncn4)c3c2)cn1 | 40.7
Cn1nccc1-c1ccc2[nH]nc(-c3cc(N4CCOCC4)ncn3)c2c1 | 45.7

# next compound below
Consider `COc1ccc(-c2ccc3[nH]nc(-c4cc(N5CCOCC5)ncn4)c3c2)cn1` . Its measured IC50 is 31.2

---

biological target: LRRK2(G2019S mutation, GST-LRRK2(amino acids 970-2527)) (Homo sapiens (Human), UniProt Q5S007, G2019S); assay: LRRK2 Km ATP LanthaScreen Assay; type: biochemical; conditions: Km ATP (184 μM ATP solution), G2019S LRRK2, mean IC50
measured metric: pIC50
On this scale, pIC50 is minus log10 of a concentration expressed in M (mol/L).

Observe how each entry below is paired with its result.
CC(C)Oc1ccc2[nH]nc(-c3cc(N4C[C@H](O)[C@@H](N)[C@@H]4C)ncn3)c2c1 | 7.84
CC(C)Oc1ccc2[nH]nc(-c3cc(N4CC[C@H](F)C4)ncn3)c2c1 | 8.02
CC(C)Oc1ccc2[nH]nc(-c3cc(N4CCN(C(=O)C5CC5)CC4)ncn3)c2c1 | 8.38
CC(C)Oc1cc2c(-c3cc(N4CCNC(=O)C4)ncn3)n[nH]c2cc1F | 8.54
COCCOc1ccc2[nH]nc(-c3cc(N4CCN(C5CC5)CC4)ncn3)c2c1 | 7.01
CC(C)Cc1ccc2[nH]nc(-c3cc(N4CCOCC4)ncn3)c2c1 | 7.25
CC(C)Oc1ccc2[nH]nc(-c3cc(N4CCc5oc(C6CC6)nc5C4)ncn3)c2c1 | 7.52

# next compound below
Consider `Cn1cc(-c2cc3c(-c4cc(N5CCC(F)(C#N)CC5)ncn4)n[nH]c3cc2F)cn1` . Its measured pIC50 is 7.40

---

biological target: LRRK2(G2019S mutation, GST-LRRK2(amino acids 970-2527)) (Homo sapiens (Human), UniProt Q5S007, G2019S); test: LRRK2 Km ATP LanthaScreen Assay; format: biochemical; details: Km ATP (184 μM ATP solution), G2019S LRRK2, mean IC50
# pIC50 listing for each entry below
On this scale, pIC50 is minus log10 of a concentration expressed in M (mol/L).

Observe how each entry below is paired with its result.
CC(C)Oc1ccc2[nH]nc(-c3cc(N4CCCC(C(C)(C)O)C4)ncn3)c2c1 (stereo not shown) | 8.16
CC(C)Oc1ccc2[nH]nc(-c3cc(N4CCN(C5CC5)CC4)ncn3)c2c1 | 8.08
CO[C@H]1CN(c2cc(-c3n[nH]c4ccc(-c5cnn(C)c5)cc34)ncn2)C[C@@H]1O | 8.22

# next compound below
Consider `CC(C)Oc1ccc2[nH]nc(-c3cc(N4CCN(CCO)CC4)ncn3)c2c1` . Its measured pIC50 is 8.13

---

target: LRRK2(G2019S mutation, GST-LRRK2(amino acids 970-2527)) (Homo sapiens (Human), UniProt Q5S007, G2019S); assay: LRRK2 Km ATP LanthaScreen Assay; assay type: biochemical; conditions: Km ATP (184 μM ATP solution), G2019S LRRK2, mean IC50
measured metric: pIC50
On this scale, pIC50 is minus log10 of a concentration expressed in M (mol/L).

CC(C)Oc1ccc2[nH]nc(-c3cc(N4CCCCC4)ncn3)c2c1 | 7.97
CC(C)Oc1ccc2[nH]nc(-c3cc(N4CC[S+]([O-])CC4)ncn3)c2c1 [Example D4] | 7.94
[2H]C1([2H])OC([2H])([2H])C([2H])([2H])N(c2cc(-c3n[nH]c4ccc(OC(C)C)cc34)ncn2)C1([2H])[2H] | 8.15

Consider `CCOc1ccc2[nH]nc(-c3cc(N4CCN(S(C)(=O)=O)CC4)ncn3)c2c1` . Its measured pIC50 is 7.81

Consider `CC(C)Oc1ccc2[nH]nc(-c3cc(N4C[C@H](O)[C@@H](N(C)C)C4)ncn3)c2c1` . Its measured pIC50 is 7.82

Consider `CC(C)Oc1ccc2[nH]nc(-c3cc(N4CCN(C)C(=O)C4)ncn3)c2c1` . Its measured pIC50 is 7.95

Consider `CC(C)Oc1cc2c(-c3cc(N4C[C@H](N)C[C@@H]4C)ncn3)n[nH]c2cc1F` . Its measured pIC50 is 8.12

Consider `CCOc1ccc2[nH]nc(-c3cc(N4CCN(CC)C(=O)C4)ncn3)c2c1` . Its measured pIC50 is 7.78

---

target: LRRK2(G2019S mutation, GST-LRRK2(amino acids 970-2527)) (Homo sapiens (Human), UniProt Q5S007, G2019S); experiment: LRRK2 Km ATP LanthaScreen Assay; format: biochemical; settings: Examples N1-N25
# IC50 listing for each entry below
Return type: number; implicit unit nM.

Observe how each entry below is paired with its result.
CC(C)Oc1cc2c(-c3cc(N4CC[S+]([O-])CC4)ncn3)n[nH]c2cc1F | 6.1
CC(C)Oc1cc2c(-c3cc(N4C[C@H](O)[C@@H](N(C)C)C4)ncn3)n[nH]c2cc1F | 7.9

Consider `CC(C)Oc1cc2c(-c3cc(N4CCC(F)(F)C4)ncn3)n[nH]c2cc1F` . Its measured IC50 is 6.1

Consider `CCOC(=O)N1CCN(c2cc(-c3n[nH]c4cc(F)c(OC(C)C)cc34)ncn2)CC1` . Its measured IC50 is 6.1

---

Molecular target: LRRK2(G2019S mutation, GST-LRRK2(amino acids 970-2527)) (Homo sapiens (Human), UniProt Q5S007, G2019S)
Experiment: LRRK2 Km ATP LanthaScreen Assay
Type: biochemical
Conditions: Km ATP (184 μM ATP solution), G2019S LRRK2, mean IC50
Procedure: Unless otherwise noted, all LRRK2 IC50 data presented in tables refers to the LRRK2 Km ATP LanthaScreen™ Assay that is described in the Biological Assay section. […] e) Plates are incubated at room temperature for 1 hour and read on an Envision™ multi-mode plate reader with LanthaScreen™ settings. Results are analysed using Assay Data Analyzer.
# IC50 listing for each entry below
Return type: number; implicit unit nM.

CC(C)Oc1ccc2[nH]nc(-c3cc(N4CCO[C@H](C)C4)ncn3)c2c1 [Example J9] | 9.2
Cn1cc(-c2ccc3[nH]nc(-c4cc(N5CCC(F)(CO)CC5)ncn4)c3c2)cn1 [Example M24] | 2.9
COCCN1CCN(c2cc(-c3n[nH]c4ccc(OC(C)C)cc34)ncn2)CC1=O [Example D21] | 5.59
CC(C)Oc1ccc2[nH]nc(-c3cc(N4C[C@H](F)[C@@H](F)C4)ncn3)c2c1 [Example J10] | 11.1
CC(C)Oc1ccc2[nH]nc(-c3cc(N4CCN(C(C)C)CC4)ncn3)c2c1 [Example D17] | 7.68

Consider CC(C)Oc1ccc2[nH]nc(-c3cc(N4CC[C@@H](N)C4)ncn3)c2c1 [Example D43] . Its measured IC50 is 8.78

Consider CCN1CCN(c2cc(-c3n[nH]c4ccc(OC)cc34)ncn2)CC1 [Example E8] . Its measured IC50 is 24.3

---

# pIC50 listing for each entry below
biological target: LRRK2(G2019S mutation, GST-LRRK2(amino acids 970-2527)) (Homo sapiens (Human), UniProt Q5S007, G2019S); assay: LRRK2 Km ATP LanthaScreen Assay; format: biochemical; conditions: Examples O1-O23
On this scale, pIC50 is minus log10 of a concentration expressed in M (mol/L).

Observe how each entry below is paired with its result.
COC[C@H](C)Oc1ccc2[nH]nc(-c3cc(N4CC[C@@H](CO)C4)ncn3)c2c1 [Example O7] | 8.44
COC[C@H](C)Oc1ccc2[nH]nc(-c3cc(N4CCOC[C@@H]4C)ncn3)c2c1 [Example O16] | 8.22
COC[C@H](C)Oc1ccc2[nH]nc(-c3cc(N4CC(F)(F)C4)ncn3)c2c1 [Example O14] | 8.12

# next compound below
Consider COC[C@H](C)Oc1ccc2[nH]nc(-c3cc(N4CCN(C5CC5)CC4)ncn3)c2c1 [Example O11] . Its measured pIC50 is 8.39

---

target: LRRK2(G2019S mutation, GST-LRRK2(amino acids 970-2527)) (Homo sapiens (Human), UniProt Q5S007, G2019S); assay: LRRK2 Km ATP LanthaScreen Assay; type: biochemical; settings: Km ATP (184 μM ATP solution), G2019S LRRK2, mean IC50
Classes based on IC50: c1: < 6 nM; c2: ≥ 6 nM and < 20 nM; c3: ≥ 20 nM

Take a look at these entries with their results.
CC(C)Oc1ccc2[nH]nc(-c3cc(N4CC[C@@H](F)C4)ncn3)c2c1 [Example J25] | c2
COc1ccc2[nH]nc(-c3cc(N4CCN(S(C)(=O)=O)CC4)ncn3)c2c1 [Example E4] | c3
CCOc1ccc2[nH]nc(-c3cc(N4CCNC(=O)C4)ncn3)c2c1 [Example F6] | c3
CC(C)Oc1ccc2[nH]nc(-c3cc(N4CCN(S(C)(=O)=O)CC4)ncn3)c2c1 [Example D7] | c2
CC(C)Oc1ccc2[nH]nc(-c3cc(N4CCC(F)(CO)CC4)ncn3)c2c1 [Example K20] | c2

// return the class label for COc1ccc2[nH]nc(-c3cc(N4CCNC(=O)C4)ncn3)c2c1 [Example E10]
c3
